Molecular target: UniProt:Q9WTR4
Sequence (Q9WTR4 as listed by the source): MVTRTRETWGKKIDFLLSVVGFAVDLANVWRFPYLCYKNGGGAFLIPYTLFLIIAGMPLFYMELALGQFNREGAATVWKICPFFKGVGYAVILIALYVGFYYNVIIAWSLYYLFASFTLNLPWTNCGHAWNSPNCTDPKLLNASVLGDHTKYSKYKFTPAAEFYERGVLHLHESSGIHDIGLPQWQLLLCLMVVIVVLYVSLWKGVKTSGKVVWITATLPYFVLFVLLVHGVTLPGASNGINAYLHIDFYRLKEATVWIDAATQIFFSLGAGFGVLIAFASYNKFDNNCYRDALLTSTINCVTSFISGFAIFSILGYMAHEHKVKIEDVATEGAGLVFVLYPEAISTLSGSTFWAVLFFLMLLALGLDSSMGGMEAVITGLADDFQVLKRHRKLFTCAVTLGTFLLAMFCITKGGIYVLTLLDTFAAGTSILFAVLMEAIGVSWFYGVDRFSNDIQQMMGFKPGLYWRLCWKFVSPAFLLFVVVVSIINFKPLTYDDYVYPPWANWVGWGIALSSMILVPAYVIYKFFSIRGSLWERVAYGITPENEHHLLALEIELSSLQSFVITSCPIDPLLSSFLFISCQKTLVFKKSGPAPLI
Experiment: Ability to inhibit the uptake of [3H]norepinephrine (NE) 0.1 uM concentration at rat brain synaptosomes
Format: functional, subcellular
Binary call on inhibition: satisfied from 7% upward, not satisfied beneath that.

Determine whether measured inhibition meets or exceeds 7% for "c1ccc([C@@H]2CN3CCC[C@H]3c3ccccc32)cc1"
satisfied

Determine whether measured inhibition meets or exceeds 7% for "C[C@@]12CCCN1CCc1ccccc12"
not satisfied

Determine whether measured inhibition meets or exceeds 7% for "c1ccc([C@@]23CCCN2CCc2ccccc23)cc1"
not satisfied

Determine whether measured inhibition meets or exceeds 7% for "c1ccc([C@@H]2CN3CCCC[C@H]3c3ccccc32)cc1"
satisfied

Determine whether measured inhibition meets or exceeds 7% for "Br.C[C@@]1(c2ccccc2)CN2CCC[C@H]2c2ccccc21"
satisfied

Determine whether measured inhibition meets or exceeds 7% for "c1ccc([C@@H]2CN3CC[C@@H]4CCCC[C@@]43c3ccccc32)cc1"
not satisfied

Determine whether measured inhibition meets or exceeds 7% for "FC(F)(F)c1cccc([C@@H]2CN3CCC[C@H]3c3ccccc32)c1"
satisfied

Determine whether measured inhibition meets or exceeds 7% for "c1ccc2c(c1)CCN1CCC[C@@H]21"
not satisfied

Determine whether measured inhibition meets or exceeds 7% for "O=C(O)c1ccccc1[C@@H]1CN2CCC[C@H]2c2ccccc21"
not satisfied

Determine whether measured inhibition meets or exceeds 7% for "C[C@H]1[C@@H](c2ccccc2)c2ccccc2[C@@H]2CCCN21"
not satisfied

Determine whether measured inhibition meets or exceeds 7% for "Cc1ccccc1[C@@H]1CN2CCC[C@H]2c2ccccc21"
satisfied

Determine whether measured inhibition meets or exceeds 7% for "O=C(O)c1ccccc1[C@@H]1CN2CCC[C@@H]2c2ccccc21"
not satisfied

Determine whether measured inhibition meets or exceeds 7% for "Br.FC(F)(F)c1ccccc1[C@@H]1CN2CCC[C@@H]2c2ccccc21"
satisfied

Determine whether measured inhibition meets or exceeds 7% for "CC(=O)Nc1ccc([C@@H]2CN3CCC[C@H]3c3ccccc32)cc1"
satisfied

Determine whether measured inhibition meets or exceeds 7% for "C[C@@H]1[C@@H](c2ccccc2)c2ccccc2[C@@H]2CCCN12"
not satisfied

Determine whether measured inhibition meets or exceeds 7% for "c1ccc([C@H]2CN3CC[C@@H]4CCCC[C@@]43c3ccccc32)cc1"
not satisfied

Determine whether measured inhibition meets or exceeds 7% for "c1ccc2c(c1)[C@H](C1CCCCC1)CN1CCC[C@@H]21"
not satisfied

Determine whether measured inhibition meets or exceeds 7% for "FC(F)(F)c1cc([C@@H]2CN3CCC[C@@H]3c3ccccc32)cc(C(F)(F)F)c1"
satisfied

Determine whether measured inhibition meets or exceeds 7% for "c1ccc([C@@H]2CN3CCC[C@@H]3c3ccccc32)cc1"
not satisfied

Determine whether measured inhibition meets or exceeds 7% for "Br.c1ccc([C@H]2Cc3ccccc3[C@@H]3CCCN23)cc1"
satisfied

Determine whether measured inhibition meets or exceeds 7% for "c1ccc(C[C@@H]2CN3CCC[C@H]3c3ccccc32)cc1"
satisfied

----------
Biological target: Sodium-dependent dopamine transporter (Rattus norvegicus, UniProt P23977)
Sequence (P23977 whole entry): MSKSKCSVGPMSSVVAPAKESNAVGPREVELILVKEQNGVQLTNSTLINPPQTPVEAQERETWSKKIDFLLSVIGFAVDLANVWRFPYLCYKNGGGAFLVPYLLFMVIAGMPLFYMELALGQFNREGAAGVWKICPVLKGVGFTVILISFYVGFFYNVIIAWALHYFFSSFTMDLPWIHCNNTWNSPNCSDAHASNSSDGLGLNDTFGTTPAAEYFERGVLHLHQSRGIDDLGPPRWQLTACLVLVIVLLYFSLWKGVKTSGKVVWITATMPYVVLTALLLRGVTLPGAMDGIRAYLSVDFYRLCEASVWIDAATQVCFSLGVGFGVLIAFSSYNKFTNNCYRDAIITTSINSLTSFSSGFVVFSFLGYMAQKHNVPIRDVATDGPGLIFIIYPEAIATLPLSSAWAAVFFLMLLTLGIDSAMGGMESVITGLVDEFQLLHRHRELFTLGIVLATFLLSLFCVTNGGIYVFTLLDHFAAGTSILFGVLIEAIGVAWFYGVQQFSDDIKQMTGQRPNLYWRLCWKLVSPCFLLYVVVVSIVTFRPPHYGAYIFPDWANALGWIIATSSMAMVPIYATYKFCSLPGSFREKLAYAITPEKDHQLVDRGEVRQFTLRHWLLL
Experiment: Inhibition of the uptake of tritiated dopamine (DA) in rat synaptosomes
For each record, write down the corresponding Ki.
Your answer is read as nM, so omit the unit and give the number.

Report Ki, nothing else, for this compound: Br.Clc1ccccc1[C@@H]1CN2CCC[C@@H]2c2ccccc21 (stereo in doubt; (+)-24b)
17.5

Report Ki, nothing else, for this compound: "Br.Clc1ccc2c(c1)[C@H]1CCCN1C[C@H]2c1ccccc1"
2.5

Report Ki, nothing else, for this compound: "Br.Clc1cccc([C@@H]2CN3CCC[C@@H]3c3ccccc32)c1"
2.5

Report Ki, nothing else, for this compound: "CCn1cc(C(=O)O)c(=O)c2ccc(Cc3ccccc3)nc21"
7.2

----------
Target: D(1A) dopamine receptor (Rattus norvegicus) (UniProt P18901)
Sequence (P18901 whole entry): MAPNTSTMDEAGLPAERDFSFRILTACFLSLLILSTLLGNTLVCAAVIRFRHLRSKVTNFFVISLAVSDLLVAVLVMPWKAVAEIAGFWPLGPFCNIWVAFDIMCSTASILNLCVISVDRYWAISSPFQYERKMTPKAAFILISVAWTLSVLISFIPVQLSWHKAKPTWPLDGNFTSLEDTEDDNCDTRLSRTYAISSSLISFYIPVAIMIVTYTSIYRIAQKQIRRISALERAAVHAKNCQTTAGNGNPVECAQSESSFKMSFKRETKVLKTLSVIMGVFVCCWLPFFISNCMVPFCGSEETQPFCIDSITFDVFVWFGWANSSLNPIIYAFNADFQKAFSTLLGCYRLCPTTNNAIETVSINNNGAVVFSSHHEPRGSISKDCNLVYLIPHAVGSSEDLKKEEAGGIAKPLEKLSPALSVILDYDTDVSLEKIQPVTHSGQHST
Test: Binding affinity towards Dopamine receptor D1 at 1.0 uM concentration
Binary call on inhibition: satisfied from 40% upward, not satisfied beneath that.

Determine whether measured inhibition meets or exceeds 40% for FC(F)(F)c1cccc([C@@H]2CN3CCC[C@@H]3c3ccccc32)c1 (stereo in doubt; 37b)
not satisfied

Determine whether measured inhibition meets or exceeds 40% for CSc1ccc([C@@H]2CN3CCC[C@@H]3c3ccccc32)cc1 (stereo in doubt; 48b)
not satisfied

Determine whether measured inhibition meets or exceeds 40% for c1ccc([C@@H]2CN3CCC[C@@H]3c3ccccc32)cc1 (stereo in doubt; 7b)
not satisfied

Determine whether measured inhibition meets or exceeds 40% for "Fc1ccc([C@@H]2CN3CCC[C@@H]3c3ccccc32)cc1"
satisfied

Determine whether measured inhibition meets or exceeds 40% for COc1ccc2c(c1)CN(C)CC2c1ccc(Cl)c(Cl)c1 (stereo unspecified)
not satisfied

----------
For each record, write down the corresponding Ki.
Biological target: Sodium-dependent dopamine transporter (Rattus norvegicus, UniProt P23977)
Assay: Inhibition of the uptake of tritiated dopamine (DA) in rat synaptosomes
Your answer is read as µM, so omit the unit and give the number.

Report Ki, nothing else, for this compound: "Br.Fc1ccc([C@@H]2CN3CCC[C@@H]3c3cc(F)ccc32)cc1"
0.0077

Report Ki, nothing else, for this compound: "Br.Oc1ccccc1[C@@H]1CN2CCC[C@@H]2c2ccccc21"
0.36

Report Ki, nothing else, for this compound: "Br.Oc1ccc([C@@H]2CN3CCC[C@@H]3c3ccccc32)cc1"
0.0051

Report Ki, nothing else, for this compound: "Br.COc1ccc([C@@H]2CN3CCC[C@@H]3c3ccccc32)cc1"
0.0052

Report Ki, nothing else, for this compound: "Cc1ccccc1[C@@H]1CN2CCC[C@@H]2c2ccccc21"
0.117

Report Ki, nothing else, for this compound: COc1ccc2c(c1)CN(C)CC2c1ccc(Cl)c(Cl)c1 (configuration not stated)
0.0109

----------
For each record, write down the corresponding pKi.
Target: D(1A) dopamine receptor (Rattus norvegicus)
Assay: Binding affinity towards Dopamine receptor D1
# reply with the number alone; pKi is -log10 of concentration in mol/L

Report pKi, nothing else, for this compound: "Br.Oc1cc2c(cc1O)[C@H]1CCCN1C[C@H]2c1ccccc1"
6.97

Report pKi, nothing else, for this compound: "Br.Fc1ccc([C@@H]2CN3CCC[C@@H]3c3cc(F)ccc32)cc1"
6.74

Report pKi, nothing else, for this compound: "Br.COc1cc2c(cc1OC)[C@@H]1CCCN1C[C@H]2c1ccccc1"
6.34

Report pKi, nothing else, for this compound: "Br.Oc1cc2c(cc1O)[C@@H]1CCCN1C[C@H]2c1ccccc1"
7.19

----------
Species: Mus musculus
Test: Gross behavioral effects ascertained in mice; W indicates weak stimulant or depressant activity of little significance.
Type: functional, organism-based
Property name: behavior

• c1ccc(CCN2CCCC2c2ccccc2)cc1 (stereo not given) = Weak
• Fc1ccc([C@@H]2CN3CCC[C@@H]3c3ccccc32)cc1 = Partial stimulant
• CN1Cc2c(N)cccc2C(c2ccccc2)C1 (stereo not given) = Partial stimulant
• Br.Fc1ccc([C@@H]2CN3CCC[C@@H]3c3cc(F)ccc32)cc1 = Partial stimulant
• Br.Oc1ccc([C@@H]2CN3CCC[C@H]3c3ccccc32)cc1 = Partial stimulant

Report behavior, nothing else, for this compound: "Br.Oc1ccccc1[C@@H]1CN2CCC[C@@H]2c2ccccc21"
Weak

Report behavior, nothing else, for this compound: "Br.COc1ccc([C@@H]2CN3CCC[C@@H]3c3ccccc32)cc1OC"
Partial stimulant

Report behavior, nothing else, for this compound: "Br.O[C@@]1(c2ccccc2)CN2CCC[C@H]2c2ccccc21"
Weak

Report behavior, nothing else, for this compound: "c1ccc([C@H]2CN3CCCC[C@H]3c3ccccc32)cc1"
Weak

Report behavior, nothing else, for this compound: "COc1cccc2c1[C@H](c1ccccc1)CN1CCC[C@H]21"
Weak

----------
Molecular target: Serotonin 1 (5-HT1) receptor (Rattus norvegicus, UniProt P28564+P30940+P19327+P28565)
Assay: Binding affinity towards serotonin S1 receptor
Type: protein assay
Property name: Ki (nM)
Your answer is read as nM, so omit the unit and give the number.

Report Ki, nothing else, for this compound: Br.Clc1ccccc1[C@@H]1CN2CCC[C@@H]2c2ccccc21 (stereo in doubt; 24b)
1680

Report Ki, nothing else, for this compound: "Clc1ccc([C@@H]2CN3CCC[C@@H]3c3ccccc32)cc1Cl"
465

Report Ki, nothing else, for this compound: CSc1ccc([C@@H]2CN3CCC[C@@H]3c3ccccc32)cc1 (stereo in doubt; 48b)
1030

Report Ki, nothing else, for this compound: CN(C)CCCN1c2ccccc2CCc2ccc(Cl)cc21 [CLOMIPRAMINE]
5000

Report Ki, nothing else, for this compound: Br.Clc1ccccc1[C@@H]1CN2CCC[C@@H]2c2ccccc21 (stereo in doubt; (-)-24b)
2700

Report Ki, nothing else, for this compound: CSc1ccc([C@@H]2CN3CCC[C@@H]3c3ccccc32)cc1 (stereo in doubt; (-)-48b)
775

Report Ki, nothing else, for this compound: Br.Clc1ccccc1[C@@H]1CN2CCC[C@@H]2c2ccccc21 (stereo in doubt; (+)-24b)
9200
